Sourced from patent US7576115B2

assay.target: thrombopoietin (TPO) receptor (Homo sapiens, UniProt P40238)
Construct: expressed in transfected cells; host or cells: human leukemic cell line UT7/EPO, stably transformed (UT7/EPO-mpl)
Sequence (P40238 26-635): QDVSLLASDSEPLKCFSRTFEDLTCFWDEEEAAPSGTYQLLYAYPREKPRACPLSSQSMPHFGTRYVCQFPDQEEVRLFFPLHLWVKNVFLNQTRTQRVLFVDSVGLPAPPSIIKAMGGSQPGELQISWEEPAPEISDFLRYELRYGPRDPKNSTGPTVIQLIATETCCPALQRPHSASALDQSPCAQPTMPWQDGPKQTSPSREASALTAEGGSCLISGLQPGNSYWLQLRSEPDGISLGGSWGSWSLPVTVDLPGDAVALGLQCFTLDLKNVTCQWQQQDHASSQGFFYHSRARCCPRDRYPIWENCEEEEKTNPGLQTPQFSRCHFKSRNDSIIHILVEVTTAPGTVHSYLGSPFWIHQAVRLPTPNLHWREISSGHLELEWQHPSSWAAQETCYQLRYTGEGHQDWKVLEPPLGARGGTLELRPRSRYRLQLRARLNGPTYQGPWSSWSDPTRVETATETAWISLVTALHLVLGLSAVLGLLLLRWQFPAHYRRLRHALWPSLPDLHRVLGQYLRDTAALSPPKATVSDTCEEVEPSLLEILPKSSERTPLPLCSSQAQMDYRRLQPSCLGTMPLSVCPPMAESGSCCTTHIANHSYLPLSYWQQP
assay.name: Stimulation of proliferation of TPO-dependent cell line UT7/EPO-mpl (WST-8)
Format: cell-based
condition.summary: concentration that yields a growth rate corresponding to 50% of the growth of UT-7/EPO-mpl observed in the presence of 10 ng/ml TPO
measured.quantity: EC50 (nM)

Reference set (3 entries):
C/C(=N\NC(=S)Nc1ccc2cn[nH]c2c1)c1nn(C)c(-c2ccc(Cl)c(Cl)c2)c1O | 11.2
CC(=O)Nc1cccc(NC(=S)N/N=C(\C)c2nn(C)c(-c3ccc(C(F)(F)F)cc3)c2O)c1 | 6.32
C/C(=N\NC(=O)c1ccc(C(N)=O)s1)c1csc(-c2ccc(Cl)c(Cl)c2)c1O | 6.6

I = C/C(=N\NC(=O)c1ccc(C(=O)NC2CCCC2)s1)c1csc(-c2ccc(Cl)c(Cl)c2)c1O
II = C/C(=N\NC(=O)c1ccc(N)c(N)c1)c1csc(-c2ccc(Cl)c(Cl)c2)c1O
III = C/C(=N\NC(=O)c1ccc(C(=O)O)c([N+](=O)[O-])c1)c1csc(-c2ccc(C)c(C)c2)c1O
Prompt line: List the 3 entries from lowest EC50 to highest EC50 value. List the labels according to the requested ordering.
Response line: III, I, II
